Below, each entry is listed alongside its reported glycan array binding signal (z-score).
Target or system: Gal(b1-4)GlcNAc(b1-3)Gal(b1-4)GlcNAc(b1-3)Gal(b1-4)GlcNAc(b1-3)Gal(b1-4)GlcNAc(b1-2)Man(a1-3)[Gal(b1-4)GlcNAc(b1-3)Gal(b1-4)GlcNAc(b1-3)Gal(b1-4)GlcNAc(b1-3)Gal(b1-4)GlcNAc(b1-2)Man(a1-6)]Man(b1-4)GlcNAc(b1-4)[Fuc(a1-6)]GlcNAc
Experimental protocol: glycan array binding signal (z-score within array); higher = stronger binding
Details: glycan notation: IUPAC condensed, linker removed
Only a selection was taken, and the strongest signals are over-represented in it overall.
Respond with the number and no other words.

# count of solved cases: 2
Cohesin-hDCIR (Homo sapiens) (protein) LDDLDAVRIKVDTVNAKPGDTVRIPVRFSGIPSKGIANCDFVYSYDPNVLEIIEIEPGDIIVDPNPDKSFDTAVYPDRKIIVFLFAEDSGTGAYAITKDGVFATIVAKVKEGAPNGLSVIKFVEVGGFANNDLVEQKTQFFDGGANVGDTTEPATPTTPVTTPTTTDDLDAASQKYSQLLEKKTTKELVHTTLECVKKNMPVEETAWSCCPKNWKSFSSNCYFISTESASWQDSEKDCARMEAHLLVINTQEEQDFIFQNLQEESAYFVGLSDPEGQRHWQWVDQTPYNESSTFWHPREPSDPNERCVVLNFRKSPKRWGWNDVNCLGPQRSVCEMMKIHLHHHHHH; 2.82
SP15308B-bot-339-22-339 (Bacteroides ovatus) (protein) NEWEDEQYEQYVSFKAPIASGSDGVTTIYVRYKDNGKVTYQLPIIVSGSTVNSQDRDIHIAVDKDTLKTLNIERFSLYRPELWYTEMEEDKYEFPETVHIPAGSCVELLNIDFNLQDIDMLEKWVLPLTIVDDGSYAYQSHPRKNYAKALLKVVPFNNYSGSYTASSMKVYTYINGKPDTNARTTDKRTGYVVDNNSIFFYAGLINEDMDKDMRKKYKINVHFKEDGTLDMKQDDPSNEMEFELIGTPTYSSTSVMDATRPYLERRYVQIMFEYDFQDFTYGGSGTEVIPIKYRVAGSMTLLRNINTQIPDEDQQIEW; 7.12

# binder PhypaEULS3 (Physcomitrella patens) (protein) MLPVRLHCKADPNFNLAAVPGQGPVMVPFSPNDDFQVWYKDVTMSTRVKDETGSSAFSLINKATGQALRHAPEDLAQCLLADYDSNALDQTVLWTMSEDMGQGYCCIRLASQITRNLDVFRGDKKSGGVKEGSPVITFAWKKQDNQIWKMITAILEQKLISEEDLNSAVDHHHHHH ; its glycan array binding signal (z-score) = -0.557
